// data source = paper PMC10447463

Give Log Infectivity for every item shown.
tested on: HIV-1 infection of TZM-bl cells; experiment: HIV-1 infectivity enhancement assay, β-galactosidase luminescence; type: cell-based; conditions: Fig. S7 panel B (plotted against CR), rounded to two decimals; Log10 infection relative to EF-C, TZM-bl cells; asymmetric std dev errors
Could you keep your reply to the number by itself?

Qu. What value of measured Log Infectivity is listed for QCKAKAQANMWQ ?
Ans. -1.14

Qu. Recorded Log Infectivity for CKIKIQIRGD , please?
Ans. -0.48

Qu. Recorded Log Infectivity for RGDCKFKFQF , please?
Ans. -0.82

Qu. Which Log Infectivity value is on record for HGDKCHGDKC ?
Ans. -1.99

Qu. Which Log Infectivity value is on record for HHHHKIKIQINMYYYY ?
Ans. 0.04

Qu. Query (substance): CKFKFQF ; field requested: Log Infectivity
Ans. 0.09

Qu. Recorded Log Infectivity for KIKIQIII , please?
Ans. -0.45

Qu. I have this substance here, QCKFKFQFNMWQ , and I need its recorded Log Infectivity.
Ans. -0.21

Qu. Requested read-out: Log Infectivity. Entry: KFKFQFNMWQ
Ans. -0.12

Qu. Entry under review: CKFKFQFW . Reported Log Infectivity?
Ans. -0.06

Qu. Param item = QCKIKIQINMWQ ; retrieve measured Log Infectivity.
Ans. 0.02

Qu. Dear colleague, I am looking for the recorded Log Infectivity of the following substance: MKFKFQF
Ans. -1.2

Qu. May I ask what Log Infectivity has been recorded for QCKFKQFFNMWQ ?
Ans. -0.61

Qu. Please report the recorded Log Infectivity for RGDKIKIQINMC .
Ans. 0.03

Qu. What value of Log Infectivity has been recorded for this entry: CKIKQII
Ans. -1.38

Qu. Quick check: Log Infectivity of HLHLPLL ?
Ans. -2

Qu. Returns the measured Log Infectivity for the input substance. Input: RLRLTLC
Ans. -1.29

Qu. Give the measured Log Infectivity of KNERIKNERI .
Ans. -1.89

Qu. Would you kindly share the measured Log Infectivity for CKFKFQFNM ?
Ans. 0.09

Qu. Quick one: Log Infectivity of KIKQIINMWQ ?
Ans. -0.46

Qu. I'd like to know its Log Infectivity. The substance in question is KFKFQFNM
Ans. -0.33

Qu. For QCKIKIQINM , what is its reported Log Infectivity?
Ans. -0.4

Qu. Please look up its Log Infectivity: CKIKIQINM
Ans. 0.2

Qu. Which Log Infectivity is reported for this substance? RGDKIKIQIC
Ans. -0.08

Qu. I would be grateful if you could share the reported Log Infectivity for MDQMDQMDQMDQMDQ .
Ans. -2.37

Qu. Request the reported Log Infectivity associated with RGDSGGGGGGKIKIQIC
Ans. -0.06

Qu. Fill in the blank: the reported Log Infectivity of EIEIQINM is ____.
Ans. -1.44
